Field: relative viability. Provide a value for each of the molecules that follow.
# Tested on: LK-2
# protocol text: relative viability (nuclei count vs DMSO), 5 days (fraction); higher = more cells survive
# condition details: first compound 0.1581 µM
The answer should be written as a number, with no unit following it.

Consider the molecule CC1(C)CCC(c2ccc(Cl)cc2)=C(CN2CCN(c3ccc(C(=O)NS(=O)(=O)c4ccc(N[C@H](CCN5CCOCC5)CSc5ccccc5)c(S(=O)(=O)C(F)(F)F)c4)cc3)CC2)C1 [Navitoclax] + CS(=O)(=O)CCNCc1ccc(-c2ccc3ncnc(Nc4ccc(OCc5cccc(F)c5)c(Cl)c4)c3c2)o1 [Lapatinib] (partner 2 µM) and give its measured relative viability.
0.886

Okay, and CC1(C)CCC(c2ccc(Cl)cc2)=C(CN2CCN(c3ccc(C(=O)NS(=O)(=O)c4ccc(N[C@H](CCN5CCOCC5)CSc5ccccc5)c(S(=O)(=O)C(F)(F)F)c4)cc3)CC2)C1 [Navitoclax] + Cc1cc(Nc2cc(N3CCN(C)CC3)nc(Sc3ccc(NC(=O)C4CC4)cc3)n2)n[nH]1 [Tozasertib] (partner 0.1 µM) ?
0.159

Okay, and CC1(C)CCC(c2ccc(Cl)cc2)=C(CN2CCN(c3ccc(C(=O)NS(=O)(=O)c4ccc(N[C@H](CCN5CCOCC5)CSc5ccccc5)c(S(=O)(=O)C(F)(F)F)c4)cc3)CC2)C1 [Navitoclax] + Cc1nc(Nc2ncc(C(=O)Nc3c(C)cccc3Cl)s2)cc(N2CCN(CCO)CC2)n1 [Dasatinib] (partner 0.075 µM) ?
0.202

* * *

Field: relative viability. Provide a value for each of the molecules that follow.
# System: EMC-BAC-2
# protocol text: relative viability (nuclei count vs DMSO), 5 days (fraction); higher = more cells survive
# condition details: first compound 0.1581 µM
The answer should be written as a number, with no unit following it.

// lookup relative viability | system=EMC-BAC-2 | key= CC1(C)CCC(c2ccc(Cl)cc2)=C(CN2CCN(c3ccc(C(=O)NS(=O)(=O)c4ccc(N[C@H](CCN5CCOCC5)CSc5ccccc5)c(S(=O)(=O)C(F)(F)F)c4)cc3)CC2)C1 [Navitoclax] + CS(=O)(=O)CCNCc1ccc(-c2ccc3ncnc(Nc4ccc(OCc5cccc(F)c5)c(Cl)c4)c3c2)o1 [Lapatinib] (partner 2 µM)
0.963

Okay, and CC1(C)CCC(c2ccc(Cl)cc2)=C(CN2CCN(c3ccc(C(=O)NS(=O)(=O)c4ccc(N[C@H](CCN5CCOCC5)CSc5ccccc5)c(S(=O)(=O)C(F)(F)F)c4)cc3)CC2)C1 [Navitoclax] + CC(C)C[C@H](NC(=O)[C@H](Cc1ccccc1)NC(=O)c1cnccn1)B(O)O [Bortezomib] (partner 0.002 µM) ?
1.03

Okay, and CC1(C)CCC(c2ccc(Cl)cc2)=C(CN2CCN(c3ccc(C(=O)NS(=O)(=O)c4ccc(N[C@H](CCN5CCOCC5)CSc5ccccc5)c(S(=O)(=O)C(F)(F)F)c4)cc3)CC2)C1 [Navitoclax] + CS(=O)(=O)N1CCN(Cc2cc3nc(-c4cccc5[nH]ncc45)nc(N4CCOCC4)c3s2)CC1 [Pictilisib] (partner 1 µM) ?
0.548

Okay, and CC1(C)CCC(c2ccc(Cl)cc2)=C(CN2CCN(c3ccc(C(=O)NS(=O)(=O)c4ccc(N[C@H](CCN5CCOCC5)CSc5ccccc5)c(S(=O)(=O)C(F)(F)F)c4)cc3)CC2)C1 [Navitoclax] + Nc1nc2[nH]cc(CCc3ccc(C(=O)N[C@@H](CCC(=O)O)C(=O)O)cc3)c2c(=O)[nH]1 [Pemetrexed] (partner 0.2 µM) ?
0.423
